- Study system: TAAR1 (Mus musculus)
- Assay text: TAAR1 radioligand binding, membranes of stably transfected HEK293 cells (mouse)
- Experimental parameters: mouse/rat; cell not marked 'rat'; radioligand [3H]-rac-2-(1,2,3,4-tetrahydro-1-naphthyl)-2-imidazoline, 4° C.; read-out: Ki (μM) mouse/rat
I'd appreciate it if you marked entries True when Ki is lower than 0.005 µM and False when it is not.

NC1=N[C@@H](CCc2ccc(F)c(C(F)(F)F)c2)CO1; True
NC1=N[C@@H](CCc2c(F)cccc2Cl)CO1; True
C[C@]1(c2cc(F)c(F)c(F)c2)COC(N)=N1; True
C[C@]1(CCc2ccccc2)COC(N)=N1 [Example 81 (S)]; False
NC1=N[C@@H](c2ccc(Br)cc2C(F)(F)F)CO1; True
CCC(C[C@H]1COC(N)=N1)c1ccc(Cl)c(Cl)c1 (stereo partly drawn); True
CC1(c2ccc(F)c(F)c2F)COC(N)=N1 (racemic); False
NC1=N[C@@H](c2ccc(F)c(Br)c2F)CO1 [Example 29 (S)]; False
NC1=N[C@@H](CSc2ccccc2)CO1; True

---

- Study system: TAAR1 (Mus musculus, UniProt Q923Y8)
- Assay text: TAAR1 radioligand binding, membranes of stably transfected HEK293 cells (mouse)
- Experimental parameters: mouse/rat; cell not marked 'rat'; radioligand [3H]-rac-2-(1,2,3,4-tetrahydro-1-naphthyl)-2-imidazoline, 4° C.; read-out: Ki (μM) mouse/rat
The compounds listed here are annotated with their Ki.
Reported metric: Ki (µM)

NC1=N[C@@H](c2cccc(Cl)c2F)CO1 [Example 109]; 0.0014
COc1ccc([C@H]2COC(N)=N2)c(C(F)(F)F)c1 [Example 240]; 0.0032
NC1=N[C@@H](c2cc(Cl)cc(Cl)c2)CO1 [Example 201]; 0.0002
NC1=N[C@@H](COCc2ccccc2)CO1 [Example 350]; 0.0064
NC1=N[C@@H](CCc2cc(F)cc(C(F)(F)F)c2)CO1 [Example 159]; 0.001
NC1=N[C@@H](c2ccc(Br)cc2)CO1 [Example 105]; 0.0007
NC1=N[C@@H](CCc2cc(Cl)ccc2Cl)CO1 [Example 333]; 0.0021
C[C@]1(c2cc(F)cc(Cl)c2)COC(N)=N1 [Example 266]; 0.0016
Cc1ccc(CC[C@H]2COC(N)=N2)cc1 [Example 116]; 0.0012
NC1=N[C@@H](CCc2ccc(Cl)c(C(F)(F)F)c2)CO1 [Example 144]; 0.0012
C[C@H](C[C@H]1COC(N)=N1)c1ccccc1 [82 (S, R)]; 0.0016
COc1cc(CC[C@H]2COC(N)=N2)ccc1F [Example 86]; 0.0008
NC1=N[C@@H](c2cc(Cl)ccc2Cl)CO1 [Example 298]; 0.0004
NC1=N[C@@H](c2ccccc2Br)CO1 [Example 265]; 0.0009
Cc1cc(CC[C@H]2COC(N)=N2)ccn1 [Example 220]; 0.0084
C[C@]1(CCc2cccc(Cl)c2)COC(N)=N1 [Example 246]; 0.0055
CCC(C[C@H]1COC(N)=N1)c1cc(F)cc(F)c1 (some centres unmarked) [Example 203]; 0.0039
NC1=N[C@@H](CCc2cccc(C(F)(F)F)c2)CO1 [Example 120]; 0.0014
NC1=N[C@@H](CCc2cccc(Cl)c2)CO1 [Example 232]; 0.0006
CC1(c2cc(F)c(F)cc2F)COC(N)=N1 (racemic) [Example 251]; 0.0086
C[C@]1(c2cc(Cl)ccc2F)COC(N)=N1 [Example 270]; 0.0016
CCC(C[C@H]1COC(N)=N1)c1cc(Cl)ccc1F (some centres unmarked) [Example 358]; 0.0084
NC1=N[C@@H](c2cccc(Cl)c2)CO1 [Example 192]; 0.0019

---

The compounds listed here are annotated with their pKi.
- Study system: TAAR1 (Mus musculus, UniProt Q923Y8)
- Assay text: TAAR1 radioligand binding, membranes of stably transfected HEK293 cells (mouse)
pKi: −log10 of the molar value.
Reported metric: pKi

NC1=NC(c2ccccc2C(F)(F)F)CO1 (racemic); 8.42
NC1=NC(c2ccc(-c3ccc(Cl)cc3)cc2)CO1 (racemic); 8.66
NC1=NC(c2ccc(Cl)cc2Cl)CO1 (racemic); 9.00
Cc1ccc(Cl)cc1C1COC(N)=N1 (racemic); 8.89
NC1=NC(c2cc(F)ccc2F)CO1 (racemic); 8.32
NC1=NC(c2cc(F)ccc2C(F)(F)F)CO1 (racemic); 8.12
Cc1cc(F)ccc1C1COC(N)=N1 (racemic); 8.47

---

- Study system: TAAR1 (Mus musculus)
- Assay text: TAAR1 radioligand binding, membranes of stably transfected HEK293 cells (mouse)
- Experimental parameters: mouse/rat; cell not marked 'rat'; radioligand [3H]-rac-2-(1,2,3,4-tetrahydro-1-naphthyl)-2-imidazoline, 4° C.; read-out: Ki (μM) mouse/rat
Reported metric: Ki (µM)

CC[C@@H](C[C@H]1COC(N)=N1)c1ccccc1; 0.0035
Cc1cc(C2(C)COC(N)=N2)c(F)cc1Cl (racemic); 0.0011
NC1=N[C@@H](CCc2cccc(F)c2)CO1; 0.0012
NC1=N[C@@H](c2ccc(F)cc2C(F)(F)F)CO1; 0.0029
CCC(C[C@H]1COC(N)=N1)c1ccccc1 (stereo partly drawn); 0.0037
CC(C[C@H]1COC(N)=N1)c1ccccc1F (stereo partly drawn); 0.0015

---

- Study system: TAAR1 (Mus musculus, UniProt Q923Y8)
- Assay text: TAAR1 radioligand binding, membranes of stably transfected HEK293 cells (mouse)
- Experimental parameters: mouse/rat; cell not marked 'rat'; radioligand [3H]-rac-2-(1,2,3,4-tetrahydro-1-naphthyl)-2-imidazoline, 4° C.; read-out: Ki (μM) mouse/rat
I'd appreciate it if you marked entries satisfied when Ki is lower than 0.004 µM and not satisfied when it is not.

NC1=N[C@@H](c2ccc(Br)c(Cl)c2)CO1; satisfied
CC(Cc1ccccc1)[C@H]1COC(N)=N1 (stereo partly shown); satisfied
NC1=N[C@@H](c2cc(F)cc(F)c2)CO1; satisfied
CCC(C[C@H]1COC(N)=N1)c1ccc(F)c(Cl)c1 (stereo partly shown); not satisfied
CCC(C[C@H]1COC(N)=N1)c1cc(F)cc(Cl)c1 (stereo partly shown); not satisfied
CC1(c2ccc(Cl)cc2Cl)COC(N)=N1 (racemic); satisfied
NC1=N[C@@H](c2ccc(Cl)c(Cl)c2)CO1; satisfied
NC1=N[C@@H](c2cc(F)cc(F)c2F)CO1; satisfied
NC1=N[C@@H](CCc2ccccc2C(F)(F)F)CO1; satisfied
NC1=N[C@H](c2cc(Cl)c(Cl)cc2C(F)(F)F)CO1; not satisfied
NC1=N[C@@H](CCc2ccccc2Cl)CO1; satisfied
NC1=N[C@@H](c2ccc(F)c(F)c2)CO1; not satisfied
NC1=N[C@@H](c2cc(F)ccc2F)CO1; satisfied
NC1=N[C@@H](c2cc(F)c(F)c(F)c2)CO1; satisfied
NC1=N[C@@H](CC2(c3ccc(Cl)cc3)CC2)CO1; not satisfied
CCC(C[C@H]1COC(N)=N1)c1cccc(C(F)(F)F)c1 (stereo partly shown); not satisfied
NC1=N[C@@H](c2ccccc2Cl)CO1; satisfied

---

- Study system: TAAR1 (Mus musculus)
- Assay text: TAAR1 radioligand binding, membranes of stably transfected HEK293 cells (mouse)
pKi: −log10 of the molar value.
Reported metric: pKi

NC1=NC(c2ccc3c(c2)OCCO3)CO1 (racemic); 8.54
NC1=NC(c2ccc3ccccc3c2)CO1 (racemic); 9.15
NC1=NC(c2cccc(F)c2C(F)(F)F)CO1 (racemic); 8.02
NC1=NC(C2CCc3ccccc3C2)CO1 (racemic); 8.77
NC1=NC(c2ccc(Br)cc2C(F)(F)F)CO1 (racemic); 8.77
NC1=NC(c2cc(Cl)c(Cl)cc2C(F)(F)F)CO1 (racemic); 8.03
NC1=N[C@@H](CCc2ccc(F)cc2Cl)CO1; 8.72
NC1=NC(c2ccc(Br)cc2F)CO1 (racemic); 8.64
NC1=NC(c2ccc(Br)cc2Cl)CO1 (racemic); 9.10
NC1=NC(c2cccc(Cl)c2)CO1 (racemic); 8.30
NC1=NC(c2ccc(Br)c(Cl)c2)CO1 (racemic); 9.00
NC1=NC(CCc2ccccc2)CO1 (racemic) [D, reference compound]; 9.00
COc1ccc(C2COC(N)=N2)cc1Cl (racemic); 8.47
NC1=NC(c2ccc(F)c(F)c2F)CO1 (racemic); 8.24
NC1=N[C@@H](c2ccc(-c3ccccc3)cc2)CO1 [Example 21 (S)]; 9.10
NC1=NC(c2ccc(F)cc2C(F)(F)F)CO1 (racemic); 8.20
NC1=NC(c2ccc(Br)c(F)c2)CO1 (racemic); 9.10
CCc1cc(Cl)ccc1C1COC(N)=N1 (racemic); 8.60
NC1=NC(c2ccc(OCc3ccccc3)cc2)CO1 (racemic); 8.96
NC1=N[C@@H](c2ccc(Cl)c(F)c2)CO1; 9.22
NC1=NC(c2cc(Cl)ccc2Cl)CO1 (racemic); 8.89
NC1=NC(c2ccc(F)cc2F)CO1 (racemic); 8.08
Cc1ccccc1[C@H]1COC(N)=N1 [39a (S)]; 8.60
NC1=NC(c2ccc(Cl)cc2C(F)(F)F)CO1 (racemic); 8.27
Cc1c(F)cccc1C1COC(N)=N1 (racemic); 8.54
NC1=NC(c2ccccc2Br)CO1 (racemic); 8.60
